Source listed as patent US7141598B2.

# TARGET: UniProt:P11715
# Sequence (P11715 1-507): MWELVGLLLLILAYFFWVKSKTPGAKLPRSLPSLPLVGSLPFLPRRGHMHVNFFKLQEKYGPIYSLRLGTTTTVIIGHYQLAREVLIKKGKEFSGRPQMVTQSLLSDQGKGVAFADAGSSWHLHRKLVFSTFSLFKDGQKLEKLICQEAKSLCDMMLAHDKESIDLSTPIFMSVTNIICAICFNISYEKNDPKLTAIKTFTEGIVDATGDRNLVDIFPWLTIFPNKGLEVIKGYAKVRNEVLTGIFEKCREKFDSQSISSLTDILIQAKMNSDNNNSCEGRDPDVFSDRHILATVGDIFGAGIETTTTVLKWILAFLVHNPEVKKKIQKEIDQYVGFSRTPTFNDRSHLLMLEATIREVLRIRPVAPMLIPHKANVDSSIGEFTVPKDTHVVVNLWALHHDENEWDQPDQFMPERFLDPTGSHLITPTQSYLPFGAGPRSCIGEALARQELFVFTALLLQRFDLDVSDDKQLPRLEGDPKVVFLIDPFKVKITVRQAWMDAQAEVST
Please provide measured pIC50 for the entries that follow.
Numbers only, as −log10 of the molar value.

For the 2 compounds below, give their pIC50 values.
1. CNC(=O)c1ccc2cc(C3(O)CCn4cncc43)ccc2c1 (centres unmarked) [Example 5]
2. CNC(=O)c1ccc2cc(C3(O)CCn4cncc43)ccc2c1 (single isomer, unassigned; (+)) [Example 11]

Resp:
[7.27, 7.32]
